Assay: ATG_BRE_CIS: Attagene CIS-FACTORIAL HepG2 Assay for human Bone Morphogenetic Protein (BMP) Response Element (BRE) (AID 2282933)
Conditions: HepG2 BMP response element reporter, Attagene transcription factor profiling; actives raise or lower the signal
Method: ATG_CIS is a cell-based, multiplexed-readout assay that uses HepG2, a human liver cell line, with measurements taken at 24 hours after chemical dosing in a 24-well plate.ATG_BRE_CIS is one of 52 assay component(s) measured or calculated from the ATG_CIS assay. […] This assay endpoint, ATG_BRE_CIS, was analyzed with bidirectional fitting relative to DMSO as the negative control and baseline of activity. […]
Active and inactive are the calls of the source. How the source made its calls: active means hit-call score of the fitted dose curve at least 0.9, where 1 is the maximum; inactive means score below 0.9.
Answer with one of the outcomes given here: 1 = active, 0 = inactive

Example entries begin here.
molecule=C=C[C@@H](C)CCC=C(C)C group=0
molecule=CSc1nc(NC2CC2)nc(NC(C)(C)C)n1 group=0
molecule=Cc1ccc2n[nH]nc2c1 group=0
molecule=CC(C)=CCC[C@](C)(O)[C@@H]1CC=C(C)CC1 group=0
molecule="CC(=O)OCCC(C)CC(C)(C)C (stereo unspecified)" group=0

Proceed to the following item.
Each molecule tested received a call. Report the one for CC1COc2ccccc2N1C(=O)C(Cl)Cl (stereo unspecified) . 0

Sourced from PubChem BioAssay (EPA / NIEHS)
